- Method summary: Multiple-ascending dose (MAD) study, once daily for 10 days in healthy subjects: plasma pharmacokinetics
- Assay type: in vivo, human
- Condition parameters: human, plasma, oral, 5 mg, 5.0 mg QD, low salt diet; Day 10; mean (CV %)
Property measured: AUC(0-inf) (ng·h/mL)
Dear colleague, please return just the value in ng·h/mL, with no unit written.

Prompt: // query AUC(0-inf) value for entry CCC(=O)N[C@@H]1CCCc2c(-c3ccc4c(c3)CCC(=O)N4C)cncc21 [(R)-Compound 1]
Completion: 3480

----------
- Method summary: Multiple-ascending dose (MAD) study, once daily for 10 days in healthy subjects: plasma pharmacokinetics
- Format: in vivo, human
- Condition parameters: human, plasma, oral, 2.5 mg, 2.5 mg QD, low salt diet; Day 1; median (min, max); read-out: Tmax, D 1
- Text: This was a randomized, double-blind study to assess the safety, tolerability, PK, and PD of multiple oral doses of (R)-compound 1 when administered to healthy adult subjects. The study consisted of 5 cohorts, with up to 12 subjects per cohort. […]
Property measured: Tmax (h)
Your answer should be a plain number; it is taken to be in h.

Prompt: I am curious: what Tmax value has been reported for CCC(=O)N[C@@H]1CCCc2c(-c3ccc4c(c3)CCC(=O)N4C)cncc21 [(R)-Compound 1] ?
Completion: 3

----------
- Method summary: Relative bioavailability of tablet versus oral solution, single 5 mg dose
- Assay type: in vivo, human
- Condition parameters: human, plasma, po, 5 mg, oral solution, read-out: AUC0-t, GM (Geo. CV %)
Property measured: AUC(0-t)

Prompt: Look up AUC(0-t) for this molecule: CCC(=O)N[C@@H]1CCCc2c(-c3ccc4c(c3)CCC(=O)N4C)cncc21 [(R)-Compound 1]
Completion: 1610 ng·h/mL

----------
- Method summary: Single-ascending dose (SAD) study in healthy subjects: plasma and urine pharmacokinetics
- Condition parameters: human, in vivo, po, 3 mg
Property measured: Tmax
Field note: include the unit after the figure.

Prompt: Can you look up the measured Tmax of CCC(=O)N[C@@H]1CCCc2c(-c3ccc4c(c3)CCC(=O)N4C)cncc21 [(R)-Compound 1] for me?
Completion: 2 h

----------
- Method summary: Multiple-ascending dose (MAD) study, once daily for 10 days in healthy subjects: plasma pharmacokinetics
- Assay type: in vivo, human
- Condition parameters: human, plasma, oral, 0.5 mg, 0.5 mg QD, normal salt diet; Day 1; median (min, max); read-out: Tmax, D 1
Property measured: Tmax (h)
Give the value, in units of h, as a plain number.

Prompt: // Tmax lookup, key: CCC(=O)N[C@@H]1CCCc2c(-c3ccc4c(c3)CCC(=O)N4C)cncc21 [(R)-Compound 1]
Completion: 2

----------
- Method summary: Single-ascending dose (SAD) study in healthy subjects: plasma and urine pharmacokinetics
- Condition parameters: human, in vivo
Property measured: fraction unbound

Prompt: Item under review: CCC(=O)N[C@@H]1CCCc2c(-c3ccc4c(c3)CCC(=O)N4C)cncc21 [(R)-Compound 1] . Reported fraction unbound?
Completion: 0.26

----------
- Condition parameters: human, plasma
Property measured: Tmax (h)
Only the number, expressed in h, is required.

Prompt: Please look up its Tmax: CCC(=O)NC1CCCc2c(-c3ccc4c(c3)CCC(=O)N4C)cncc21 (stereo not shown)
Completion: 1.3

----------
- Method summary: Single-ascending dose (SAD) study in healthy subjects: plasma and urine pharmacokinetics
- Condition parameters: human, in vivo, po, 30 mg
Property measured: Tmax

Prompt: Report Tmax for CCC(=O)N[C@@H]1CCCc2c(-c3ccc4c(c3)CCC(=O)N4C)cncc21 [(R)-Compound 1] please.
Completion: 45 min

----------
- Method summary: Single-ascending dose (SAD) study in healthy subjects: plasma and urine pharmacokinetics
- Condition parameters: human, in vivo, po, 180 mg
Property measured: AUC(0-inf) (ng·h/mL)
Expressed in ng·h/mL, but write only the number.

Prompt: # get_value(readout='AUC(0-inf)', item= CCC(=O)N[C@@H]1CCCc2c(-c3ccc4c(c3)CCC(=O)N4C)cncc21 [(R)-Compound 1] )
Completion: 65800

----------
- Method summary: Relative bioavailability of tablet versus oral solution, single 5 mg dose
- Format: in vivo, human
- Condition parameters: human, plasma, po, 5 mg, oral solution, read-out: Cmax, Geo. LS Mean
Property measured: Cmax (ng/mL)
Numbers only; they are read as ng/mL.

Prompt: Give the measured Cmax of CCC(=O)N[C@@H]1CCCc2c(-c3ccc4c(c3)CCC(=O)N4C)cncc21 [(R)-Compound 1] .
Completion: 52.1

----------
- Method summary: Single-ascending dose (SAD) study in healthy subjects: plasma and urine pharmacokinetics
- Condition parameters: human, in vivo, po, 90 mg
Property measured: AUC(0-inf)
Output should be the measured figure followed by the unit it is expressed in.

Prompt: Param item = CCC(=O)N[C@@H]1CCCc2c(-c3ccc4c(c3)CCC(=O)N4C)cncc21 [(R)-Compound 1] ; retrieve measured AUC(0-inf).
Completion: 32200 ng·h/mL

----------
- Method summary: Single-ascending dose (SAD) study in healthy subjects: plasma and urine pharmacokinetics
- Condition parameters: human, in vivo, po, 360 mg
Property measured: Tmax (min)
Note: unit min is implicit; provide only the numeric part.

Prompt: Quick one: Tmax of CCC(=O)N[C@@H]1CCCc2c(-c3ccc4c(c3)CCC(=O)N4C)cncc21 [(R)-Compound 1] ?
Completion: 30

----------
- Method summary: Multiple-ascending dose (MAD) study, once daily for 10 days in healthy subjects: plasma pharmacokinetics
- Assay type: in vivo, human
- Condition parameters: human, plasma, oral, 5 mg, 5.0 mg QD, low salt diet; Day 1; mean (CV %); read-out: AUC0-24 h
Property measured: AUC(0-t) (µg·h/mL)
Kindly answer with a numeric value in µg·h/mL, unit omitted.

Prompt: Query (compound): CCC(=O)N[C@@H]1CCCc2c(-c3ccc4c(c3)CCC(=O)N4C)cncc21 [(R)-Compound 1] ; field requested: AUC(0-t)
Completion: 0.658

----------
- Method summary: Single-ascending dose (SAD) study in healthy subjects: plasma and urine pharmacokinetics
- Condition parameters: human, in vivo, po, 30 mg
Property measured: Cmax (ng/mL)
Report the figure in ng/mL without appending any unit label.

Prompt: Which Cmax value belongs to CCC(=O)N[C@@H]1CCCc2c(-c3ccc4c(c3)CCC(=O)N4C)cncc21 [(R)-Compound 1] ?
Completion: 386

----------
- Method summary: Relative bioavailability of tablet versus oral solution, single 5 mg dose
- Type: in vivo, human
- Condition parameters: human, plasma, po, 5 mg, oral solution, read-out: AUC0-t, Geo. LS Mean
Property measured: AUC(0-t) (ng·h/mL)
Give your result in ng·h/mL as a bare value.

Prompt: If you can, please state the reported AUC(0-t) value of CCC(=O)N[C@@H]1CCCc2c(-c3ccc4c(c3)CCC(=O)N4C)cncc21 [(R)-Compound 1] .
Completion: 1580

----------
- Method summary: Single-ascending dose (SAD) study in healthy subjects: plasma and urine pharmacokinetics
- Condition parameters: human, in vivo, po, 3 mg
Property measured: Vd/F (L)
// units = L; emit number, no label

Prompt: Return reported Vd/F; argument: CCC(=O)N[C@@H]1CCCc2c(-c3ccc4c(c3)CCC(=O)N4C)cncc21 [(R)-Compound 1]
Completion: 117

----------
- Method summary: Single-ascending dose (SAD) study in healthy subjects: plasma and urine pharmacokinetics
- Condition parameters: human, in vivo, po, 360 mg
Property measured: AUC(0-inf)

Prompt: Query: AUC(0-inf); subject: CCC(=O)N[C@@H]1CCCc2c(-c3ccc4c(c3)CCC(=O)N4C)cncc21 [(R)-Compound 1]
Completion: 147 µg·h/mL

----------
- Method summary: clinical
- Condition parameters: human, in vivo, 1000 mg, Metformin plasma AUC0-inf, Geom LS Mean
Property measured: AUC(0-inf) (ng·h/mL)
Provide only the numeric value, understood in ng·h/mL.

Prompt: If you can, please state the reported AUC(0-inf) value of CN(C)C(=N)N=C(N)N [metformin] .
Completion: 11100

----------
- Method summary: Single-ascending dose (SAD) study in healthy subjects: plasma and urine pharmacokinetics
- Condition parameters: human, in vivo, po, 10 mg
Property measured: Tmax
Please answer in the form of a number followed by its unit of measurement.

Prompt: Reported Tmax for CCC(=O)N[C@@H]1CCCc2c(-c3ccc4c(c3)CCC(=O)N4C)cncc21 [(R)-Compound 1] : what is it?
Completion: 30 min

----------
- Method summary: Relative bioavailability of tablet versus oral solution, single 5 mg dose
- Assay type: in vivo, human
- Condition parameters: human, plasma, oral, 5 mg, tablet, read-out: AUC0-inf, Geo. LS Mean
Property measured: AUC(0-inf) (ng·h/mL)
Answer with a number only, understood to be in ng·h/mL.

Prompt: Dear colleague, I am looking for the recorded AUC(0-inf) of the following compound: CCC(=O)N[C@@H]1CCCc2c(-c3ccc4c(c3)CCC(=O)N4C)cncc21 [(R)-Compound 1]
Completion: 1720
